System: HEK-293T
assay.protocol: Multiplex assay against HEK293T
Format: toxicity, cell-based
assay.conditions: human, 12 h, 10 µM, compound concentration 10 uM, replicate 2
reported.property: Population Mitochondria Different-Phenotype (%)
Answers are plain numbers, in %.

compound | quantity.unit | endpoint.result
Nc1nc(CC(=O)Nc2ccc(CCNC[C@H](O)c3ccccc3)cc2)cs1 [MIRABEGRON] | % | 64
Nc1nc(-c2ccco2)c2cnn(Cc3ccccc3F)c2n1 | % | 68
CC(C)C[C@H](CO)Nc1nc(S[C@@H](C)c2ccccc2)nc2nc(N)sc12 [AZD-8797] | % | 75
CSc1nc(NC2CCCC2)c([N+](=O)[O-])c(NC2CCCC2)n1 [GS-39783] | % | 68

// for each compound below, give its Population Mitochondria Different-Phenotype (%)
1. Cc1c(Cc2ccc3ccccc3n2)c2cc(F)ccc2n1CC(=O)O [TIMAPIPRANT]
2. C[C@H](NC(=O)CNC(=O)c1cccc(Cl)c1)c1ccccc1
3. Cl.Cl.OCCOCCN1CCN(C(c2ccccc2)c2ccc(Cl)cc2)CC1 (centres undefined) [HYDROXYZINE HYDROCHLORIDE]
4. COc1ccc2c(c1OCc1ccccc1)C[C@@H](C(=O)O)N(C(=O)C(c1ccccc1)c1ccccc1)C2 [OLODANRIGAN]
5. CCCCCCNC(=O)Nc1ccc(S(=O)(=O)Nc2ccc(CCNC[C@H](O)COc3ccc(O)cc3)cc2)cc1 [L-755507]

Result:
[63, 61, 83, 58, 87]
